- ASSAY_SYSTEM: UniProtKB O00519
- Sequence (O00519 whole entry): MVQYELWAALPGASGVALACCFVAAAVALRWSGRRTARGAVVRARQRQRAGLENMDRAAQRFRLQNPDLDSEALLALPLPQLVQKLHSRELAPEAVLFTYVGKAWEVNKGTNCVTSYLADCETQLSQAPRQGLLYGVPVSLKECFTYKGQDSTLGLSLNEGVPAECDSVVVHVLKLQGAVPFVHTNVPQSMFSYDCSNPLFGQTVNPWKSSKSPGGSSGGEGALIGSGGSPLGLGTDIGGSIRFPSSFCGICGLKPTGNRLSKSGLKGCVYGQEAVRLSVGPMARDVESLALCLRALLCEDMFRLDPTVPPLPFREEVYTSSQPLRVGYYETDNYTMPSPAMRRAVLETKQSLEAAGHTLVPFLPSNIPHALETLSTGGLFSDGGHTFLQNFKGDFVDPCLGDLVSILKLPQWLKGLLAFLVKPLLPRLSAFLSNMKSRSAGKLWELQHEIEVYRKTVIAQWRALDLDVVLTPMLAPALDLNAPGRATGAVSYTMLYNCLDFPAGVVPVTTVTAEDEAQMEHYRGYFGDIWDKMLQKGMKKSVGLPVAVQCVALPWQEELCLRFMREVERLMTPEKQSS
- TEST_DETAILS: Assay Method 1: FAAH assay, T84 cell homogenate, 3H-anandamide hydrolysis
- Type: biochemical
- SETUP_CONDITIONS: 3H-AEA tracer 200 nM, 1 h at rt
- Experimental: T84 frozen pellets (contents of 1-4×15 cm culture dishes) were homogenized in 300 mL of FAAH assay buffer (125 mM Tris, 1 mM EDTA, 0.2% glycerol, 0.02% Triton X-100, 0.4 mM Hepes, pH 9). The assay mixture was prepared from 50 μL of the cell homogenate, 10 μL of the test compound, and 40 μL of anandamide [1-3H-ethanolamine] (^3H-AEA; Perkin-Elmer, 10.3 Ci/mmol), which was added last, for a final tracer concentration of 200 nM. The reaction mixture was incubated at rt for 1 hour (h). […]
So basically: is IC50 under 0.5 µM? Then condition met. Not under? Then condition not met.

Field: below-cutoff. Rule: recorded IC50 strictly less than 0.5 µM. Subject: `O=C(Nc1ccccc1)N1CCN(Cc2cccc(Oc3cc4ccccc4c4ccccc34)c2)CC1`
condition not met

Field: below-cutoff. Rule: recorded IC50 strictly less than 0.5 µM. Subject: `COc1ccc(CN2CCN(C(=O)Nc3ccccc3)CC2)cc1`
condition met

Field: below-cutoff. Rule: recorded IC50 strictly less than 0.5 µM. Subject: `CCc1ccc(CN2CCN(C(=O)Nc3ccccc3)CC2)cc1`
condition met

Field: below-cutoff. Rule: recorded IC50 strictly less than 0.5 µM. Subject: `O=C(Nc1ccccc1)N1CCN(Cc2cccc(OCc3ccccc3)c2)CC1`
condition met

Field: below-cutoff. Rule: recorded IC50 strictly less than 0.5 µM. Subject: `COc1cccc(Oc2cccc(CN3CCN(C(=O)Nc4ccccc4)CC3)c2)c1`
condition met
